Parameter pIC50: see the listing below.
- System: MOLM-13 cells
- method-notes: MOLM13 CTG - analysis of cell proliferation (Cell Titre Glo)
- Assay type: cell-based
- experimental-parameters: Homo sapiens, geometric mean, read-out: CTG MOLM13 cells IC50 GEOMEAN
pIC50: −log10 of the molar value.
reported-endpoint: pIC50

input_smiles=O=C(c1cc(-c2cn(Cc3cn4cc(CNCC5CCC5)ccc4n3)nn2)c2cn[nH]c2c1)N1CCOCC1 test_result="≤ 4.52"
input_smiles=CC(C)(O)CNCc1ccc2nc(CNC(=O)c3cc(=O)n4ccccc4n3)cn2c1 test_result="≤ 4.52"
input_smiles=Oc1cc(-c2cn(Cc3cn4cc(CNCC5(O)CCC5)ccc4n3)nn2)c2cn[nH]c2c1 test_result="≤ 4.52"

---

- Test system: MOLM-13 cells
- method-notes: MOLM13 CTG - analysis of cell proliferation (Cell Titre Glo)
- Type: cell-based
- experimental-parameters: Homo sapiens, geometric mean, read-out: CTG MOLM13 cells IC50 GEOMEAN
reported-endpoint: IC50 (µM)

molecule=CCCCNCc1ccc2nc(CNC(=O)c3cc(=O)n4ccccc4n3)cn2c1 prefix_operator== test_result=10.7
molecule=OC1(CNCc2ccc3nc(Cn4cc(-c5cc(Br)cc6[nH]ncc56)nn4)cn3c2)CCCCC1 prefix_operator== test_result=0.998
molecule="CC(NCC1CCCCC1)c1ccc2nc(Cn3cc(-c4cccc5[nH]ncc45)nn3)cn2c1 (stereo not drawn)" prefix_operator== test_result=9.61
molecule=OCc1ccc2nc(Cn3cc(-c4cc(Br)cc5[nH]ncc45)nn3)cn2c1 prefix_operator== test_result=2.79
molecule=O=C(NCc1cn2cc(CN3CCC4(CC3)CC4)ccc2n1)c1cc(=O)n2ccccc2n1 prefix_operator== test_result=3.51
molecule=c1cc2[nH]ncc2c(-c2cn(Cc3cn4cc(CNCC5CCCCC5)ccc4n3)nn2)n1 prefix_operator== test_result=7.5
molecule="CC1CC(CNCc2ccc3nc(CNC(=O)c4cc(=O)n5ccccc5n4)cn3c2)C1 (stereo not drawn)" prefix_operator== test_result=6.98
molecule=O=C(NCc1cn2cc(CN[C@@H]3C[C@H]3C(F)(F)F)ccc2n1)c1cc(=O)n2ccccc2n1 prefix_operator== test_result=12.7
molecule="O=C(NCc1cn2cc(CNCC3CCC3F)ccc2n1)c1cc(=O)n2ccccc2n1 (stereo not drawn)" prefix_operator== test_result=7.34
molecule=O=C(NCc1cn2cc(CNCC3CC4(CC4)C3)ccc2n1)c1cc(=O)n2ccccc2n1 prefix_operator=≥ test_result=30
molecule=CC[C@H](C)CNCc1ccc2nc(CNC(=O)c3cc(=O)n4ccccc4n3)cn2c1 prefix_operator== test_result=4.73
molecule=c1cc(-c2cn(Cc3cn4cc(CNCC5CCC5)ccc4n3)nn2)c2cn[nH]c2c1 prefix_operator== test_result=1.62
molecule=Brc1cc(-c2cn(Cc3cn4cc(CNCC5CCCCC5)ccc4n3)nn2)c2cn[nH]c2c1 prefix_operator== test_result=1.48
molecule=Clc1cc(-c2cn(Cc3cn4cc(CNCC5CCC5)ccc4n3)nn2)c2cn[nH]c2c1 prefix_operator== test_result=0.629
molecule=N#Cc1cc(-c2cn(Cc3cn4cc(CNCC5CCC5)ccc4n3)nn2)c2cn[nH]c2c1 prefix_operator== test_result=1.19
molecule=COc1cc(-c2cn(Cc3cn4cc(CNCC5(O)CCC5)ccc4n3)nn2)c2cn[nH]c2c1 prefix_operator== test_result=1.39
molecule=c1cc(-c2cn(Cc3cn4cc(CNCC5CCC5)ccc4n3)cn2)c2cn[nH]c2c1 prefix_operator== test_result=3.07
molecule=O=C(NCc1cn2cc(CNCC3CC(F)(F)C3)ccc2n1)c1cc(=O)n2ccccc2n1 prefix_operator== test_result=4.12

---

- study-system: METTL3/14 (Homo sapiens)
- Construct: The enzyme used was full-length his-tagged METTL3; His; made in house
- method-notes: METTL3/14 methyltransferase assay (METTL3_14 RFMS, RapidFire mass spectrometry)
- Type: biochemical
- experimental-parameters: 5 nM METTL3/14, 0.2 μM RNA substrate, 0.5 μM SAM; lower limit of the assay IC50=5 nM; Compounds 63-265; read-out: METTL3_14 RFMS IC50
reported-endpoint: IC50 (nM)

molecule="O=C(NCc1cn2cc(CNCC3CCCCC3)ccc2n1)c1cc(=O)c2cccc(Cl)c2o1 [Compound 185]" test_result=1070
molecule="CC(C)(C)CN1CCOCC1c1ccc2nc(CNC(=O)c3cc(=O)n4ccccc4n3)cn2c1 (centres unmarked) [Example 232]" test_result=8370
molecule="O=C(NCc1cn2cc(CN3CCc4ccccc4C3)ccc2n1)c1cc(=O)n2ccccc2n1 [Compound 131]" test_result=87.7
molecule="CC1(F)CCN(Cc2ccc3nc(CNC(=O)c4cc(=O)n5ccccc5n4)cn3c2)CC1 [Compound 207]" test_result=37.9
molecule="O=C(NCc1cn2cc(CNCC3CCCC3)ccc2n1)c1cc(=O)n2ccccc2n1 [Compound 210]" test_result=20.3
molecule="CC(C)(C)[C@H]1COC[C@@H](c2ccc3nc(CNC(=O)c4cc(=O)n5ccccc5n4)cn3c2)N1 [Example 228]" test_result=239
molecule="O=C(NCc1cn2cc(CNCc3ccccc3)ccc2n1)c1cccc2[nH]ncc12 [Compound 178]" test_result=209
molecule="O=C(NCc1cn2cc(CNCc3cccc(F)c3)ccc2n1)c1cc(=O)n2ccccc2n1 [Compound 79]" test_result=62.5
molecule="O=C(NCc1cn2cc(CNCC3(F)CCCCC3)ccc2n1)c1cc(=O)n2ccccc2n1 [Compound 91]" test_result=57.6
molecule="O=C(NCc1cn2cc(CNCC3CCCCC3)ccc2n1)c1cc(=O)c2ccc(Cl)cc2o1 [Compound 171]" test_result=293
molecule="O=C(NCc1cn2cc([C@H]3COC[C@@H](C4CCCCC4)N3)ccc2n1)c1cc(=O)c2ccccc2o1 [Example 264]" test_result=195
molecule="O=C(NCc1cn2cc(CNCCCC(F)(F)F)ccc2n1)c1cc(=O)n2ccccc2n1 [Compound 81]" test_result=27.7
molecule="O=C(NCc1cn2cc(C(F)(F)F)ccc2n1)c1cc(=O)n2ccccc2n1 [Compound 65]" test_result=6600
molecule="O=C(NCc1cn2cc(CNCC3CCCCC3)ccc2n1)c1cc(Cl)cc2[nH]ncc12 [Compound 190]" test_result=56.1
molecule="Cc1ccc2nc(Cn3cc(-c4cccc5[nH]ncc45)nn3)cn2c1 [Compound 69]" test_result=1340
molecule="CC1CCN(Cc2ccc3nc(CNC(=O)c4cc(=O)n5ccccc5n4)cn3c2)CC1 [Compound 137]" test_result=17.8
molecule="O=C(NCc1cn2cc(CNC3CC3)ccc2n1)c1cc(=O)n2ccccc2n1 [Compound 109]" test_result=350
molecule="CC1(NCc2ccc3nc(CNC(=O)c4cc(=O)n5ccccc5n4)cn3c2)CCCC1 [Compound 148]" test_result=28.5
molecule="Nc1ccc(C(=O)NCc2cn3cc(CNCC4CCCCC4)ccc3n2)cn1 [Compound 176]" test_result=909
molecule="O=C(NCc1cn2cc(CNC(CO)C3CCCCC3)ccc2n1)c1cc(=O)n2ccccc2n1 (centres unmarked) [Compound 168]" test_result=114

---

IC50 values, listed per item
- study-system: METTL3/14 (Homo sapiens, UniProt Q86U44)
- Construct: The enzyme used was full-length his-tagged METTL3; His; made in house
- Sequence (Q86U44 whole entry): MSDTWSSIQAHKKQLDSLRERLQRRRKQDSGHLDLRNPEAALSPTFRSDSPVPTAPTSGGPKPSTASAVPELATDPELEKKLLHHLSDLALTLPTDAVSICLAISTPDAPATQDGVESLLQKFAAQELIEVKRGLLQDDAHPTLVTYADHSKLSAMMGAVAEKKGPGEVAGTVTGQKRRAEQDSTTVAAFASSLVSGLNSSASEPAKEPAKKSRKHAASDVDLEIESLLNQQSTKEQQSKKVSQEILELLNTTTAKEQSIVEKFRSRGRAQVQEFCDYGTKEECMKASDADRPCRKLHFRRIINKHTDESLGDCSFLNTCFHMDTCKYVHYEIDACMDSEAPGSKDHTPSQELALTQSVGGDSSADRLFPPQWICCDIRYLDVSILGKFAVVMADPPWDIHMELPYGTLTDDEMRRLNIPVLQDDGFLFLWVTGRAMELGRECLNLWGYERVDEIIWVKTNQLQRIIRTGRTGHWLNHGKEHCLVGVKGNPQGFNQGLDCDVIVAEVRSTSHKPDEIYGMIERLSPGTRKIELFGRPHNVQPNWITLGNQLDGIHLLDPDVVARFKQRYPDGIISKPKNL
- Sequence (Q9HCE5 whole entry partner): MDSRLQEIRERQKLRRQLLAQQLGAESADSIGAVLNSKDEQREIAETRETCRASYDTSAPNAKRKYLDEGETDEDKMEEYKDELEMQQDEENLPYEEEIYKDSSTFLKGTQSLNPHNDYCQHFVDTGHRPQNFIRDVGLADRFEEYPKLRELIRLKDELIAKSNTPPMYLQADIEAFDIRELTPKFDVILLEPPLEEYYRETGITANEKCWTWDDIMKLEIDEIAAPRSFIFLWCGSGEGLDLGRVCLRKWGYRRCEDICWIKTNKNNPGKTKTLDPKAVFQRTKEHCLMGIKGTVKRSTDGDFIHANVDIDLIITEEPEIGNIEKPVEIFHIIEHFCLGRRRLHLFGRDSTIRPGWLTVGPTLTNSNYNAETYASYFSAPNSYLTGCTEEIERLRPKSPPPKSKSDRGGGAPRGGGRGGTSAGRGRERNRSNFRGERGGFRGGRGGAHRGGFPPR
- method-notes: METTL3/14 methyltransferase assay (METTL3_14 RFMS, RapidFire mass spectrometry);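 also: recombinant His-tagged METTL3 with FLAG-tagged METTL14 from baculovirus, SAH product quantified by mass spectrometry against isotope-labelled internal standards, 60 min at room temperature, scaled between no-RNA and DMSO-only wells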
- Assay type: biochemical
- experimental-parameters: 5 nM METTL3/14, 0.2 μM RNA substrate, 0.5 μM SAM; lower limit of the assay IC50=5 nM; Compounds 63-265; read-out: METTL3_14 RFMS IC50
reported-endpoint: IC50 (nM)

input_smiles=OCc1ccc2nc(Cn3cc(-c4cncc5[nH]ncc45)nn3)cn2c1 reported_endpoint=IC50 test_result=4440
input_smiles=O=C(NCc1cn2cc(CN3CCCC3)ccc2n1)c1cc(=O)n2ccccc2n1 reported_endpoint=IC50 test_result=480
input_smiles=CC(C)(C)C1CCN(Cc2ccc3nc(CNC(=O)c4cc(=O)n5ccccc5n4)cn3c2)CC1 reported_endpoint=IC50 test_result=99.1
input_smiles=O=C(NCc1ccc2nc(CNC(=O)c3cc(=O)n4ccccc4n3)cn2c1)c1ccccc1 reported_endpoint=IC50 test_result=742
input_smiles=O=C(NCc1cn2cc(CNC[C@H]3C[C@H](F)C3)ccc2n1)c1cc(=O)n2ccccc2n1 reported_endpoint=IC50 test_result=7.58
input_smiles=CC1(C)CCN(Cc2ccc3nc(CNC(=O)c4cc(=O)n5ccccc5n4)cn3c2)CC1 reported_endpoint=IC50 test_result=12.4
input_smiles=O=C(NCc1cn2cc(CN3CCC(F)CC3)ccc2n1)c1cc(=O)n2ccccc2n1 reported_endpoint=IC50 test_result=59.7
input_smiles=O=C(NCc1cn2cc(CNCC3(O)CCCCC3)ccc2n1)c1cc(=O)n2ccccc2n1 reported_endpoint=IC50 test_result=10
input_smiles=O=C(NCc1cn2cc(CNCCC3CC3)ccc2n1)c1cc(=O)c2ccccc2o1 reported_endpoint=IC50 test_result=26.4
input_smiles=O=C(NCc1cn2cc(CNCC3CCCCC3)ccc2n1)c1cc(=O)c2cc(Cl)ccc2o1 reported_endpoint=IC50 test_result=309
input_smiles=O=C(NCc1cn2cc(CNc3ccc(Cl)cc3)ccc2n1)c1cc(=O)n2ccccc2n1 reported_endpoint=IC50 test_result=1580
input_smiles=O=C(NCc1cn2cc(CNC3CCCCC3)ccc2n1)c1cc(=O)n2ccccc2n1 reported_endpoint=IC50 test_result=23.1
input_smiles=CCN(CC)Cc1ccc2nc(CNC(=O)c3cc(=O)n4ccccc4n3)cn2c1 reported_endpoint=IC50 test_result=917
input_smiles=O=C(NCc1cn2cc(CNC[C@H](O)C(F)(F)F)ccc2n1)c1cc(=O)n2ccccc2n1 reported_endpoint=IC50 test_result=221
input_smiles=O=C(NCc1cn2cc(CNC[C@@H]3CCCO3)ccc2n1)c1cc(=O)n2ccccc2n1 reported_endpoint=IC50 test_result=83.7
